molecular target: transactivating tegument protein VP16 (Human herpesvirus 1), as a GAL4-VP16 activation-domain luciferase reporter; test: VP16 transactivation inhibitor potency, dose response, counter-screen for SRC3 inhibitor project, cell-based, luminescence, high throughput, SRC3 series (AID 602167); details: VP16 transactivation luciferase reporter cells
Calls of active or inactive are those of the source. The rule behind the calls is not given here.
endpoint: IC50

For orientation, consider the following solved cases.
compound: c1ccc(-c2noc(-c3ccc4ccccc4c3)n2)nc1
IC50: 6.07 µM

compound: CCOc1cc(C(N)=O)cc(Br)c1OC
IC50: > 35.9 µM (inactive)

compound: C[C@@H](C(=O)Nc1ccc2c(c1)OCCO2)n1c(=O)[nH]c2ccccc2c1=O
IC50: inactive

compound: COc1cc2c(c(OC)c1OC)-c1ccc(SC)c(=O)cc1C(NC=O)CC2 (stereo unspecified)
IC50: inactive

compound: Cc1ccc(-n2c(Cl)c(Cl)nc(Cl)c2=O)cc1
IC50: 4.07 µM

compound: O=C(OCCC12CC3CC(CC(C3)C1)C2)c1ccc(NCc2cc(O)ccc2O)cc1
IC50: 5.45 µM

Here is another compound to look at.
Fill in the blank: the reported IC50 of COc1ccccc1N(C(=O)CCl)c1cn(C(C)=O)c2ccccc12 is ____.
8.58 µM
